substrate: O=C1CCCCC1; test: purified protein; assay type: biochemical, Streptosporangium roseum; details: 30 mM cyclopropylamine, 0.5 mM NADPH, Tris pH 8, 25 °C
Observed Property: Km (mM)
Write it as a number; the unit mM goes unstated.

Task: Name the reported Km value associated with the protein SrIRED (Streptosporangium roseum DSM 43021; P203A/T241G) (protein) MRDTDVTVLGLGLMGQALAGAFLKDGHATTVWNRSEGKAGQLAEQGAVLASSARDAAEASPLVVVCVSDHAAVRAVLDPLGDVLAGRVLVNLTSGTSEQARATAEWAAERGITYLDGAIMAIPQVVGTADAFLLYSGPEAAYEAHEPTLRSLGAGTTYLGADHGLSSLYDVALLGIMWGTLNSFLHGAALLGTAKVEATTFAAFANRWIEAVTGFVSAYAGQVDQGAYPALDATIDTHVAGVDHLIHESEAAGVNTELPRLVRTLADRALAGGQGGLGYAAMIEQFRSPSA
Output: 5.1
